These measurements were taken from patent US9469650B2.

- Tested on: HCT-15
- test-details: panel of 60 human tumor cell lines, growth inhibition (Colon Cancer)
- experimental-context: Homo sapiens, HCT-15, read-out: LC50
measurement-name: CC50

Reported CC50 for C=C1C(=O)O[C@H]2[C@H]1CC/C(COC(=O)Nc1n[nH]c(SC)n1)=C\CC[C@@]1(C)O[C@@H]21 [JVM 64] : what is it?
38 µM

Reported CC50 for C=C1C(=O)O[C@H]2[C@H]1CC/C(COC(=O)NCCN1CCOCC1)=C\CC[C@@]1(C)O[C@@H]21 [JVM 57] : what is it?
> 100 µM

Reported CC50 for C=C1C(=O)O[C@H]2[C@H]1CC/C(COC(=O)OCCCN1CCCCC1)=C\CC[C@@]1(C)O[C@@H]21 [JVM 2-26] : what is it?
37 µM

Reported CC50 for C=C1C(=O)O[C@H]2[C@H]1CC/C(COC(=O)CCC(=O)NCc1ccc(Cl)nc1)=C\CC[C@@]1(C)O[C@@H]21 [JVM 96] : what is it?
43.1 µM

###

What IC (TGI) was measured for each of the following?
- Tested on: OVCAR-8
- test-details: panel of 60 human tumor cell lines, growth inhibition (Ovarian Cancer)
- experimental-context: Homo sapiens, OVCAR-8, read-out: TGI
Please state the value followed by its unit.

Short answer please: IC (TGI), OVCAR-8, entry "C=C1C(=O)O[C@H]2[C@H]1CC/C(COC(=O)NCCN1CCCC1)=C\CC[C@@]1(C)O[C@@H]21"
31.1 µM

Short answer please: IC (TGI), OVCAR-8, entry "C=C1C(=O)O[C@H]2[C@H]1CC/C(COC(=O)OC)=C\CC[C@@]1(C)O[C@@H]21"
24.7 µM

Short answer please: IC (TGI), OVCAR-8, entry "C=C1C(=O)O[C@H]2[C@H]1CC/C(COC(=O)OCCCN1CCCCC1)=C\CC[C@@]1(C)O[C@@H]21"
13.5 µM

Short answer please: IC (TGI), OVCAR-8, entry "C=C1C(=O)O[C@H]2[C@H]1CC/C(COC(=O)CCC(=O)NCc1ccc(Cl)nc1)=C\CC[C@@]1(C)O[C@@H]21"
30 µM

###

What Percent Growth was measured for each of the following?
- System: SNB-75
- test-details: panel of 60 human tumor cell lines, growth inhibition (CNS Cancer)
- experimental-context: SNB-75; Log10 Concentration −5.0
Number in %, nothing else.

Reported Percent Growth for "C=C1C(=O)O[C@H]2[C@H]1CC/C(COC(=O)CCC(=O)N1CCC(C)CC1)=C\CC[C@@]1(C)O[C@@H]21" : what is it?
57

Reported Percent Growth for "C=C1C(=O)O[C@H]2[C@H]1CC/C(COC(=O)NC)=C\CC[C@@]1(C)O[C@@H]21" : what is it?
55

Reported Percent Growth for "C=C1C(=O)O[C@H]2[C@H]1CC/C(COC(=O)NCCN1CCCCC1)=C\CC[C@@]1(C)O[C@@H]21" : what is it?
52

Reported Percent Growth for "C=C1C(=O)O[C@H]2[C@H]1CC/C(COC(=O)N1CCC(F)(F)CC1)=C\CC[C@@]1(C)O[C@@H]21" : what is it?
42

###

- System: RPMI-8226
measurement-name: CC50

Reported CC50 for "C=C1C(=O)O[C@H]2[C@H]1CC/C(COC(=O)NC)=C\CC[C@@]1(C)O[C@@H]21" : what is it?
90.3 µM

Reported CC50 for "C=C1C(=O)O[C@H]2[C@H]1CC/C(COC(=O)N1CCC(F)(F)CC1)=C\CC[C@@]1(C)O[C@@H]21" : what is it?
> 100 µM

Reported CC50 for "C=C1C(=O)O[C@H]2[C@H]1CC/C(COC(=O)CCC(=O)N1CCC(C)CC1)=C\CC[C@@]1(C)O[C@@H]21" : what is it?
> 100 µM

Reported CC50 for "C=C1C(=O)O[C@H]2[C@H]1CC/C(COC(=O)NCCO)=C\CC[C@@]1(C)O[C@@H]21" : what is it?
> 100 µM
